Assay: NCI Yeast Anticancer Drug Screen. Data for the mlh1 rad18 strain (AID 175)
Settings: S. cerevisiae mlh1 rad18 strain growth inhibition; at 50.0 µM (retest, dose inferred, filed as 5.0)
Protocol: Growth inhibition of yeast strains with defined genetic alterations is measured as a screen for potential anti-cancer activity. Selected strains with alterations in DNA damage repair or cell cycle control were exposed to compounds and growth inhibition was measured relative to vehicle treated controls. The strain used in this assay is mlh1 rad18
This is part of a sample that, as a whole, favours compounds with a hit. Of some 79,000 tested, about 15% had one in any assay. The source made the active and inactive calls. Cut-off read from the data, not from the text of the source: active = growth inhibition above about 70%; inactive = the rest.
Give your call using only these classes: active, inactive

Look over these answered cases.
>>> print(df.to_string())
                                   compound  category_label
0                Oc1c(Br)cc(Br)cc1-c1ccccc1          active
1         O=C1/C(=C/c2cccc(O)c2)COc2ccccc21          active
2  CCN(CC)CCNc1c2ccccc2nc2cccc([N+](=O)[O-])c12          active
3         CCCCCCCCCCCCCCCCCC[N+]1(CC)CCCCC1          active
4                  NC(=O)c1ccccc1OC(=O)NCCO        inactive

Next:
Query: Hi, do you know how CCCCN(C(=O)c1ccccc1)C1CCC(=O)c2[nH]c3ccccc3c21 (stereo not drawn) came out in this test?
Reply: inactive

Values from PubChem BioAssay (NCI)
